B1: TPR 5TU (parent)
chain: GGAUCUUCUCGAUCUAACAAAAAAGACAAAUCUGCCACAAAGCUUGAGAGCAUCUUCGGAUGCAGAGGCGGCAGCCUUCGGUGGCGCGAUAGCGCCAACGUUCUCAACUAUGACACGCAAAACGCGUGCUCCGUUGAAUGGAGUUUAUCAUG

# Variants of: B1
# TEST_PROTOCOL: polymerase ribozyme fitness, log enrichment relative to wild type (log ratio); higher = more active; in vitro selection for triplet polymerase activity
Variants at the floor of the assay were thinned out.
MEASURED_ENDPOINT: polymerase ribozyme fitness (log ratio)
// no unit string in output, number only

Which polymerase ribozyme fitness (log ratio) value belongs to A47U U61A ?
-1.41

Which polymerase ribozyme fitness (log ratio) value belongs to A89C G124A ?
-1.59

Which polymerase ribozyme fitness (log ratio) value belongs to C54G U146G ?
-2.99

Which polymerase ribozyme fitness (log ratio) value belongs to A47G U90A ?
-3.82

Which polymerase ribozyme fitness (log ratio) value belongs to U135C U145C ?
-2.51

Which polymerase ribozyme fitness (log ratio) value belongs to G11A G86A ?
-2.24

Which polymerase ribozyme fitness (log ratio) value belongs to C35A C76U ?
-3.95

Which polymerase ribozyme fitness (log ratio) value belongs to `G84A` ?
-0.547

Which polymerase ribozyme fitness (log ratio) value belongs to C105A G140U ?
-4.11

Which polymerase ribozyme fitness (log ratio) value belongs to U13G G50U C93U ?
-3.9

Which polymerase ribozyme fitness (log ratio) value belongs to C95U C103G ?
-1.69

Which polymerase ribozyme fitness (log ratio) value belongs to C96U C132A ?
-1.63

Which polymerase ribozyme fitness (log ratio) value belongs to C75U C95U C96U ?
-0.218

Which polymerase ribozyme fitness (log ratio) value belongs to A89U A150C ?
-3.66

Which polymerase ribozyme fitness (log ratio) value belongs to C75U C99U ?
-2.07

Which polymerase ribozyme fitness (log ratio) value belongs to `U101G` ?
0.557

Which polymerase ribozyme fitness (log ratio) value belongs to U31A C95G C125A ?
-1.34

Which polymerase ribozyme fitness (log ratio) value belongs to A137G G141C ?
-2.74

Which polymerase ribozyme fitness (log ratio) value belongs to A49G A52C G86C ?
-3.61

Which polymerase ribozyme fitness (log ratio) value belongs to C5G A52G G80A ?
-1.81

Which polymerase ribozyme fitness (log ratio) value belongs to C38A G50U ?
-0.722

Which polymerase ribozyme fitness (log ratio) value belongs to C32A C54U C93A A110G A137G G140C ?
-4.17

Which polymerase ribozyme fitness (log ratio) value belongs to A24C G46A C116G ?
-4.14

Which polymerase ribozyme fitness (log ratio) value belongs to A16C C35U G80A G94A C118U ?
-3.33

Which polymerase ribozyme fitness (log ratio) value belongs to C76A C85A A121G ?
-2.03

Which polymerase ribozyme fitness (log ratio) value belongs to C27U C51U G83A ?
-2.56

Which polymerase ribozyme fitness (log ratio) value belongs to C54U G81A G86U C105A A147U ?
-4.16

Which polymerase ribozyme fitness (log ratio) value belongs to C76A G86A ?
-2.06

Which polymerase ribozyme fitness (log ratio) value belongs to U6G C8G ?
-3.65

Which polymerase ribozyme fitness (log ratio) value belongs to A60G C85A ?
-0.96

Which polymerase ribozyme fitness (log ratio) value belongs to U6A G86U ?
-1.41

Which polymerase ribozyme fitness (log ratio) value belongs to C8G G84A ?
-3.43

Which polymerase ribozyme fitness (log ratio) value belongs to C85A A137C ?
-4.13

Which polymerase ribozyme fitness (log ratio) value belongs to U33G C35U G59U C75G G128A U139A ?
-4.05

Which polymerase ribozyme fitness (log ratio) value belongs to A21C U56G G59A C72U A122U ?
-0.846

Which polymerase ribozyme fitness (log ratio) value belongs to A17U C105A ?
-1.28

Which polymerase ribozyme fitness (log ratio) value belongs to U4G G58A ?
0.794

Which polymerase ribozyme fitness (log ratio) value belongs to G84A U127C ?
-1.91

Which polymerase ribozyme fitness (log ratio) value belongs to A39U A113C ?
-4.11

Which polymerase ribozyme fitness (log ratio) value belongs to G88U G126A ?
-2.98

Which polymerase ribozyme fitness (log ratio) value belongs to C38A U56A A137G ?
-2.08

Which polymerase ribozyme fitness (log ratio) value belongs to A21C C36A C95G ?
-3.86

Which polymerase ribozyme fitness (log ratio) value belongs to A47U A52G A119C ?
-1.05

Which polymerase ribozyme fitness (log ratio) value belongs to U6A C93U ?
-1.6
